These entries and their values trace back to the supplement of paper PMC10567573.

B1: CCDC70 (parent)
chain: FSFKVSRWMGLACFRSLAASSPSI

- Variants of: B1
- ASSAY_EXPLANATION: protein stability index of a GFP-peptide fusion (GPS, HEK-293T) (PSI 1-6); higher = more stable;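 further: lentivirally expressed fusions sorted by FACS into six bins by GFP to DsRed ratio, PSI derived from sequencing read proportions per bin multiplied by bin number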
- CONDITION: c terminus: a fixed tail appended
READOUT_KIND: protein stability index

Some entries whose results are on file:
1) V5C = 2.92
2) R7W = 3.02
3) F3I = 2.92
4) M9F = 2.95
5) W8Y = 3.02

# next variant below
// query protein stability index for S23F ?
// result 3.09
